test: Cytotoxicity assay in mammalian cells (RAW 264.7), MTT; settings: mouse, RAW 264.7 cells
measured.parameter: IC50 at 24 h

Documented IC50 at 24 h of CC[C@H](C)[C@@H](OC(C)=O)[C@@H](C)C1=CC(=O)C2=C(O[C@]3(C)CC[C@H]4O[C@@H](C(C)(C)O)CC[C@]4(C)[C@H]3[C@@H]2O)C1=O [Compound 2, cochlioquinone A] : < 11.7 µM

Documented IC50 at 24 h of CC[C@H](C)[C@@H](OC(C)=O)[C@@H](C)C1=CC(=O)C2=C(O[C@]3(C)CC[C@H]4O[C@@H](C(C)(C)O)CC[C@]4(C)C3=C2)C1=O [Compound 4, anhydrocochlioquinone A] : < 12.1 µM

----------
experiment: Cytotoxicity assay in mammalian cells (RAW 264.7), MTT; conditions: mouse, RAW 264.7 cells
measured.parameter: viability at 24 h, 6.25 µg/mL (%)
Please reply with the bare figure in % and do not write the unit itself.

Documented viability at 24 h, 6.25 µg/mL of CC[C@H](C)[C@@H](OC(C)=O)[C@@H](C)C1=CC(=O)C2=C(O[C@]3(C)CC[C@H]4O[C@@H](C(C)(C)O)CC[C@]4(C)[C@H]3[C@@H]2O)C1=O [Compound 2, cochlioquinone A] : 28.5

Documented viability at 24 h, 6.25 µg/mL of CC[C@H](C)[C@@H](OC(C)=O)[C@@H](C)C1=CC(=O)C2=C(O[C@]3(C)CC[C@H]4O[C@@H](C(C)(C)O)CC[C@]4(C)C3=C2)C1=O [Compound 4, anhydrocochlioquinone A] : 14.3

----------
test: Cytotoxicity assay against lung cancer A549 cells, MTT; details: human, A549 lung cancer cells
Answer each item with its documented viability at 24 h, 6.25 µg/mL.
Please reply with the bare figure in % and do not write the unit itself.

Documented viability at 24 h, 6.25 µg/mL of CC[C@H](C)[C@@H](OC(C)=O)[C@@H](C)C1=CC(=O)C2=C(O[C@]3(C)CC[C@H]4O[C@@H](C(C)(C)O)CC[C@]4(C)[C@H]3[C@@H]2O)C1=O : 73.1

Documented viability at 24 h, 6.25 µg/mL of CC[C@H](C)[C@@H](OC(C)=O)[C@@H](C)C1=CC(=O)C2=C(O[C@]3(C)CC[C@H]4O[C@@H](C(C)(C)O)CC[C@]4(C)C3=C2)C1=O [Compound 4, anhydrocochlioquinone A] : 12.4

----------
Answer each item with its documented viability at 24 h, 25 µg/mL.
experiment: Cytotoxicity assay against colorectal cancer SW480 cells, MTT; settings: human, SW480 colorectal cancer cells
# do not omit the unit; it follows the number

Documented viability at 24 h, 25 µg/mL of CC[C@H](C)[C@@H](OC(C)=O)[C@@H](C)C1=CC(=O)C2=C(O[C@]3(C)CC[C@H]4O[C@@H](C(C)(C)O)CC[C@]4(C)C3=C2)C1=O [Compound 4, anhydrocochlioquinone A] : 15.4%

Documented viability at 24 h, 25 µg/mL of CC[C@H](C)[C@@H](OC(C)=O)[C@@H](C)C1=CC(=O)C2=C(O[C@]3(C)CC[C@H]4O[C@@H](C(C)(C)O)CC[C@]4(C)[C@H]3[C@@H]2O)C1=O : 17.6%

----------
Answer each item with its documented viability at 24 h, 100 µg/mL.
assay: Cytotoxicity assay in mammalian cells (RAW 264.7), MTT; conditions: mouse, RAW 264.7 cells
Please reply with the bare figure in % and do not write the unit itself.

Documented viability at 24 h, 100 µg/mL of CC[C@H](C)[C@@H](OC(C)=O)[C@@H](C)C1=CC(=O)C2=C(O[C@]3(C)CC[C@H]4O[C@@H](C(C)(C)O)CC[C@]4(C)C3=C2)C1=O [Compound 4, anhydrocochlioquinone A] : 11.1

Documented viability at 24 h, 100 µg/mL of CC[C@H](C)[C@@H](OC(C)=O)[C@@H](C)C1=C(N)C(=O)C2=C(O[C@]3(C)CC[C@H]4O[C@@H](C(C)(C)O)CC[C@]4(C)[C@H]3[C@@H]2O)C1=O : 97.1

Documented viability at 24 h, 100 µg/mL of CC[C@H](C)[C@@H](OC(C)=O)[C@@H](C)C1=CC(=O)C2=C(O[C@]3(C)CC[C@H]4O[C@@H](C(C)(C)O)CC[C@]4(C)[C@H]3[C@@H]2O)C1=O : 10.8

Documented viability at 24 h, 100 µg/mL of C/C1=C\C[C@]2(C)C(=O)C(O)=C([C@H](C)CO)[C@H]2C/C=C(\C)[C@@H](O)CC/C(C)=C/CC1 : 99.3
